target: T1, recombinant human HER2 extracellular domain protein (human, UniProt P04626 23-652); test: BLI, Protein A capture
T1 construct: range 23-652; Range is printed for the immunogen/panning protein; also called ErbB2; recombinant HER2 protein
VALUE_KIND: koff (s⁻¹)
Your answer is read as s⁻¹, so omit the unit and give the number.

Worked set:
Hu2126-H2K1 (antibody, human IgG1, V domains shown) VH: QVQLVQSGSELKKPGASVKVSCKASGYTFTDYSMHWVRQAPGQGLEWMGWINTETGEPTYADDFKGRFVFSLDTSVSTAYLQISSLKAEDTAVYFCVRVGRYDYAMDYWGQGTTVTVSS VL: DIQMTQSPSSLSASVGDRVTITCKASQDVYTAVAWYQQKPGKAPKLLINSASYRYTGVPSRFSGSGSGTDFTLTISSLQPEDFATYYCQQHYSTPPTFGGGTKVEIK :: 0.000469
2126-Hu-L16 (antibody, IgG1, V domains shown, IgG1/Cκ) VH: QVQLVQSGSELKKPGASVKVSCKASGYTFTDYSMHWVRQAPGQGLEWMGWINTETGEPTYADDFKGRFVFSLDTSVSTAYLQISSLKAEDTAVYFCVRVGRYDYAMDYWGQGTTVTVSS VL: DIQMTQSPSSLSASVGDRVTITCKASQDVYTAVAWYQQKPGKAPKLLINSASYRPTGVPSRFSGSGSGTDFTLTISSLQPEDFATYYCQQHYSTPPTFGGGTKVEIK :: 0.000464
2126-Hu-L13 (antibody, IgG1, V domains shown, IgG1/Cκ) VH: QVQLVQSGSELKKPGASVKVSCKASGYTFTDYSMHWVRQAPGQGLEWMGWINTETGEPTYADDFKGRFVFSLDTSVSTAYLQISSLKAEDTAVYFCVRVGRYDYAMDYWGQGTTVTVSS VL: DIQMTQSPSSLSASVGDRVTITCKASQDVYTAVAWYQQKPGKAPKLLINSASTRYTGVPSRFSGSGSGTDFTLTISSLQPEDFATYYCQQHYSTPPTFGGGTKVEIK :: 0.000531
2126-Hu-L09 (antibody, IgG1, V domains shown, IgG1/Cκ) VH: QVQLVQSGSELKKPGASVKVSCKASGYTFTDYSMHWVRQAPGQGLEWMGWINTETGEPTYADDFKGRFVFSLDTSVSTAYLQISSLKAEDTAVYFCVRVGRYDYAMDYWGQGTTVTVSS VL: DIQMTQSPSSLSASVGDRVTITCKASQDVYTAVAWYQQKPGKAPKLLINSASKRYTGVPSRFSGSGSGTDFTLTISSLQPEDFATYYCQQHYSTPPTFGGGTKVEIK :: 0.00049

Next binder, koff to be filled in.
Determine from records and report koff for 2126-Hu-H59 (antibody, IgG1, V domains shown, IgG1/Cκ) VH: QVQLVQSGSELKKPGASVKVSCKASGYTFTDYSMHWVRQAPGQGLEWMGWINTETGEPTYADDFKGRFVFSLDTSVSTAYLQISSLKAEDTAVYFCVRVGRYSYAMDYWGQGTTVTVSS VL: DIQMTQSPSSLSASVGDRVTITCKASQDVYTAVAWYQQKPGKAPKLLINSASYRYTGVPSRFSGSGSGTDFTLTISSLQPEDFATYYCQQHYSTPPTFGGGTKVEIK
0.00287
